Assay: yeast display, Sf9 membrane polyspecificity reagent, FACS + sequencing; frameworks hold sequencing errors
measurement_label: polyreactivity (PSR sort gate)

Example sequences with recorded polyreactivity (PSR sort gate):
Please give measured polyreactivity (PSR sort gate) of the following entry: QDQLVESGGGLVQAGGSLRLICAASGSTFVQYVMGWYRPAPGKERELVAAITRSCGSTYYADSVKGRFTISRDNAKNTVYLQMNSMKPEDSAVYYCAAYALRIQYDYWGQGTQVTVSS
high polyreactivity

Please give measured polyreactivity (PSR sort gate) of the following entry: QVQLVESGGGLVQAGGSLRLSCAASGFTFTYYAMGWYRPAPGKERELVAAISTGGSTYYADSVKGRFTISRDNAKNTVYLQMNSLKPEDTAVYYCNAKPRYRKADRLDYWGQGTQVTVSS
high polyreactivity

Please give measured polyreactivity (PSR sort gate) of the following entry: QVQLVESGGGLVQAGGSLRLSCAASGRTNRFYAMGWYRPAPGNERELVAAIRNGGRTNYADSVKGRFTIARDNAKNTVYLQMNSLKPEDTAVYSCAKQPGISYRHYDYWGQGPQVTVSS
high polyreactivity

Please give measured polyreactivity (PSR sort gate) of the following entry: QVHLVESGGGLVQAGGSLRLSCAASGSIFQPYAIRWYRQAPGKERELVAAISSSGGSTTYADSVKGRFTISRDNAKNTVYLQMTSLKPEDTAVYYCAADSADDMGYWGQGTQVTVSS
low polyreactivity

Kindly review the next sequence as well.
Please give measured polyreactivity (PSR sort gate) of the following entry: QVQLVESGGGLVQAGGSLRLSCAASGSTFSRNAMGWYRQAPGKERELVAAITRSGGSTYYADSVKGRFTISRDNAKNTVYLQMNSLKPEDTAVYYCAVAVPRGVYLYDYWGQGTQVTVSS
low polyreactivity
